These data points were gathered from ChEMBL document CHEMBL1201862.

Would you kindly list IC50 for each of these compounds?
# system.tested: Fatty acid synthase (Homo sapiens, UniProt P49327)
# Sequence (P49327 whole entry): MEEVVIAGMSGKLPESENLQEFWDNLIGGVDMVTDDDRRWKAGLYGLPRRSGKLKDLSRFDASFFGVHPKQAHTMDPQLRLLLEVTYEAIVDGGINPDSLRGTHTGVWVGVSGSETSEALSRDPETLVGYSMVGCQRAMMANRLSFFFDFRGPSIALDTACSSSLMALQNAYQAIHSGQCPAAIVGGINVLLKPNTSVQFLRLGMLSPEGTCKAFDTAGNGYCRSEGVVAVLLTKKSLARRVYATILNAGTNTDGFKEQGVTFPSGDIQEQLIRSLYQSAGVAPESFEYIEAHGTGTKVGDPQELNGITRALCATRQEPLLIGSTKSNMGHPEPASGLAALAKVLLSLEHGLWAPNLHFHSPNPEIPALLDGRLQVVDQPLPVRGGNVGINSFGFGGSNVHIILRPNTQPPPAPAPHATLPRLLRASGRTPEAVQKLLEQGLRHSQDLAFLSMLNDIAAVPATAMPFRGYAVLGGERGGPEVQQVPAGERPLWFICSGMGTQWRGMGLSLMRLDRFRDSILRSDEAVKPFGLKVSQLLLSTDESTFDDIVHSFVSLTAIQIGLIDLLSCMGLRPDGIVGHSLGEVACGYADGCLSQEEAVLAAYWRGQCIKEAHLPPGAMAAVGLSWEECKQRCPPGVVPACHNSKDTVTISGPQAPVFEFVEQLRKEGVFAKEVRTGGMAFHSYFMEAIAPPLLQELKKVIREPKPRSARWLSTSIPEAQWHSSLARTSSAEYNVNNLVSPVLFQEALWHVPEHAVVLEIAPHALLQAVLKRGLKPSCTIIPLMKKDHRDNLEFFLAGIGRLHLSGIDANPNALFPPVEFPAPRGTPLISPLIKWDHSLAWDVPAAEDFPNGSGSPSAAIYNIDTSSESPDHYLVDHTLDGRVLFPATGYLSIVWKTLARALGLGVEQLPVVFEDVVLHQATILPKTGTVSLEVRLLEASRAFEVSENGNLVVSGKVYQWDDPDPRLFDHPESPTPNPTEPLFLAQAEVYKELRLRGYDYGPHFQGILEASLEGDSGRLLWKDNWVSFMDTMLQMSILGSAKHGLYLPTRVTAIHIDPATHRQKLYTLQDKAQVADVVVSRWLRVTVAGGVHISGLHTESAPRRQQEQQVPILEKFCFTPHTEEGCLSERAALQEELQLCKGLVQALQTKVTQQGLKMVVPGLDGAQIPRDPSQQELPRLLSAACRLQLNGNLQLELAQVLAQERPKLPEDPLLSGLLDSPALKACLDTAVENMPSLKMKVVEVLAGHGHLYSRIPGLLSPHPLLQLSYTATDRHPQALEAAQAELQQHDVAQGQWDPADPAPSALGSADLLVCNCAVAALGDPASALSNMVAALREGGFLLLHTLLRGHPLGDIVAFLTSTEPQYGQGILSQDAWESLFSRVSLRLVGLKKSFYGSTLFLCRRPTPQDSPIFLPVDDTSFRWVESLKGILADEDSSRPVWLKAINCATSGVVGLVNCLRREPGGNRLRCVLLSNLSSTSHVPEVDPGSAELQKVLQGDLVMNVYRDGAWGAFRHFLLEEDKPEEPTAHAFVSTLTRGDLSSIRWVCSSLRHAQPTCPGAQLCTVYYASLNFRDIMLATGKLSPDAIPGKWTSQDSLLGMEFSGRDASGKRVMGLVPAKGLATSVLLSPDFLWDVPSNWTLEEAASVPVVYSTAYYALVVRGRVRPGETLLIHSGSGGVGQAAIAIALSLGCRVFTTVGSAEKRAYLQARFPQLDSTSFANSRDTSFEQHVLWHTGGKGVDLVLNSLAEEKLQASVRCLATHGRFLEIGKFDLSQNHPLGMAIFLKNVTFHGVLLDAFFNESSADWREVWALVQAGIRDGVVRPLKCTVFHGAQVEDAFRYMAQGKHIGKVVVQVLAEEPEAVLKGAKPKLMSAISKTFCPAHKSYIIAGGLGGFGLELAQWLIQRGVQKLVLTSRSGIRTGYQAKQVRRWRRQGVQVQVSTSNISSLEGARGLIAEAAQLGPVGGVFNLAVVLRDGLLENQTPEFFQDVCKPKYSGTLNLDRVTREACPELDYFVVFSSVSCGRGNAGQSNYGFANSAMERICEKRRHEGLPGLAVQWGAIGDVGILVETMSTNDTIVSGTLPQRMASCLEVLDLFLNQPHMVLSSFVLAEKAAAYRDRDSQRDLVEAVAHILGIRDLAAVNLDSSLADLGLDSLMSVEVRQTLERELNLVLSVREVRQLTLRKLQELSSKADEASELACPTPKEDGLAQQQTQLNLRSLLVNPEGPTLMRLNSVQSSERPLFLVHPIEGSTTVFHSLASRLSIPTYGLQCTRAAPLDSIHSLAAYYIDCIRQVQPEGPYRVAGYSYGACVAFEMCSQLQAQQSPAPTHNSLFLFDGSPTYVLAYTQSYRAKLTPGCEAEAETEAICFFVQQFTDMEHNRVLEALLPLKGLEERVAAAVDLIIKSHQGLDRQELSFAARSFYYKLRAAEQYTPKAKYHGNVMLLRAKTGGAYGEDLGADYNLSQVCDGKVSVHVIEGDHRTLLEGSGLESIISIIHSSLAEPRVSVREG
# assay.explanation: inhibition of human FAS-TE enzyme activity – biochemical, kinetic fluorescence intensity, dose response (AID 624326);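 also: rate of fluorescence rise from hydrolysis of a fluorogenic O-methyl fluorescein ester substrate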
# Format: functional
The source made the active and inactive calls.

Take a look at these entries with their results.
O=C(COc1ccc([N+](=O)[O-])cc1)NCCC1=CCCCC1    10.1 µM (active)
O=C(NC1CCCCCCC1)c1cc([N+](=O)[O-])ccc1Cl    7.35 µM (active)

Then there is this compound:
Provide the documented IC50 with Fatty acid synthase (Homo sapiens, UniProt P49327) as the system for COCCNC(=O)CCCn1c(=O)c2ccccc2n(Cc2cccc([N+](=O)[O-])c2)c1=O
15.8 µM (active)

====

# system.tested: Prothrombin (Bos taurus, UniProt P00735)
# assay.explanation: thrombin protease inhibitors – biochemical, fluorescence polarization, uHTS hits, dose response (AID 602369)
# Format: functional
The source made the active and inactive calls.
measure.name: IC50

In the examples that follow, each entry is paired with its recorded IC50.
COc1cc(CN2c3ccccc3C(=O)CS2(=O)=O)cc(OC)c1    > 100 µM (inactive)
Nc1ccc(/C=C/C(=O)c2ccco2)cc1    27.5 µM (active)

Turning now to a further molecule:
// query IC50 value for entry COc1ccc(NC(=O)Cn2c(-c3ccc(OC)cc3)cn(-c3ccc(C)cc3)c2=O)cc1
48.5 µM (active)

====

# system.tested: Corticotropin-releasing factor receptor 2/Corticotropin-releasing factor-binding protein (Homo sapiens, UniProt P24387+Q13324)
# Sequence (Q13324 whole entry): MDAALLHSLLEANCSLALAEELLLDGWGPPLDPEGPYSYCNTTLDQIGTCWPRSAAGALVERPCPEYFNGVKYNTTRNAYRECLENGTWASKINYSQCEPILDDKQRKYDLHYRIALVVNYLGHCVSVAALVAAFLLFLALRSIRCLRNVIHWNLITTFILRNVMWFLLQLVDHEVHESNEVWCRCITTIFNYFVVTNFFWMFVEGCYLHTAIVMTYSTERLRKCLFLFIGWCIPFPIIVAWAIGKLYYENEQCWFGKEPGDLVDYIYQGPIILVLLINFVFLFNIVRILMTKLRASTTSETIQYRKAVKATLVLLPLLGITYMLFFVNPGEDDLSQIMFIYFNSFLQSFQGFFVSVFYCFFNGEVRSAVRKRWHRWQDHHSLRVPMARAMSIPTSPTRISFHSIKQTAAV
# Sequence (P24387 whole entry): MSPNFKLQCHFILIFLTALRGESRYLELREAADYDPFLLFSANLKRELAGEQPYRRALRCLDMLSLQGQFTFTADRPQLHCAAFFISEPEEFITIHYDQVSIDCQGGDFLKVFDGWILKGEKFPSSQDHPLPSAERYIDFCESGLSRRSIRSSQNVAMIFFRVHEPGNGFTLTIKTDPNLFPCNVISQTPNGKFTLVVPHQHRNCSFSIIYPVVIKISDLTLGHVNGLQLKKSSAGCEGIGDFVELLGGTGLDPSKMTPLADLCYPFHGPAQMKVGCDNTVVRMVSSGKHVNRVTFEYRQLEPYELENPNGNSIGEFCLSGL
# assay.explanation: Dose Response confirmation of uHTS hits for small molecule antagonists of the CRF-binding protein and CRF-R2 receptor complex.
# Format: functional
# protocol.conditions: read-out: IC50_Mean
The source made the active and inactive calls.
measure.name: IC50

Batch request: IC50 per item, same order as input.
1. CCOC(=O)c1cc(C#N)c(N2CCN(c3ccccn3)CC2)nc1-c1ccccc1
2. CC1=CC(C)(C)N2C(=O)C3(C(C#N)=C(N)Oc4cc(O)ccc43)c3c(C)c(C)cc1c32 (stereo not given)
3. CCC(=O)Nc1cc(Cl)ccc1N1CCN(C(=O)CC)CC1
4. COC(=O)C1=C(NC(=O)c2cccc(OC)c2)CCS1
5. CCOC(=O)c1c(C(F)(F)C(F)(F)C(F)(F)C(F)(F)F)n[nH]c1C

> 47.1 µM (inactive)
29.4 µM (active)
> 47.1 µM (inactive)
> 47.1 µM (inactive)
> 47.1 µM (inactive)

====

Record type: AC50 measurement. Applies to: Cytochrome P450 3A4 (Homo sapiens)

Solved entries:
CC(=O)c1cccc(/N=C/C2=C(O)OC3(CCCCC3)OC2=O)c1    35.5 µM (inconclusive)
O=C(Nc1ccccc1)/C(=C\c1ccc2c(c1)OCO2)NC(=O)c1ccco1    20 µM (inconclusive)
c1ccc2c[n+](Cc3ccnc4ccccc34)ccc2c1    1.26 µM (inconclusive)

Param readout= AC50; system= Cytochrome P450 3A4 (Homo sapiens); entry= Cc1ccc(-c2csc3ncnc(NCCN4CCOCC4)c23)cc1 ; returns value.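 Also: CYP3A4 tested as one member of a cytochrome P450 panel screen.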
1.12 µM (inconclusive)

====

# system.tested: Corticotropin-releasing factor receptor 2/Corticotropin-releasing factor-binding protein (Homo sapiens, UniProt P24387+Q13324)
# assay.explanation: activators of CRF receptor 2 with binding protein – uHTS hits, confirmation (AID 602473)
# Format: functional
# protocol.conditions: read-out: EC50_Mean
Calls of active or inactive are those of the source.
Outcome field: choose from active, inactive

Give the logged outcome of this assay for the following compound: CCC(=O)Nc1cc(Cl)ccc1N1CCN(C(=O)CC)CC1
inactive

For this compound, state the assay outcome: Cc1ccc(N2C(=O)/C(=C\Nc3ccccc3-c3nnc(S)nc3O)c3ccccc3C2=O)c(C)c1
inactive

Recorded test outcome, item CC(=O)Nc1cc(C(=O)N2CCC3(CC2)OCCO3)ccc1S(=O)(=O)c1ccc(C)cc1
inactive

# lookup: test call for COc1ccc(CCN2C(=O)CC(Cc3ccccc3)C2=O)cc1OC (stereo unspecified)
inactive

====

# Test system: Streptococcus sp. 'group A'
# assay.explanation: Streptococcus pyogenes SK(-)GAS viability under kanamycin – luminescence, BacTiterGlo, confirmation, counter-screen for streptokinase expression inhibitor project, dose response (AID 1900)
# Format: functional, organism-based
Active and inactive are the calls of the source.
Would you kindly list EC50 for each of these molecules?

I need EC50 for every entry listed below, if you could help.
1. Fc1ccc(N2CCN(Cc3c[nH]nc3-c3ccccc3)CC2)cc1
2. O=C(CN1c2ccccc2Sc2ccccc21)NNC(=S)Nc1ccc(Cl)cc1
3. COc1ccc2nc(C3CCCCC3)nc(C3CCCCC3)c2c1
4. COc1cccc(N2CCN(c3[nH]cnc4c5cc(F)ccc5nc3-4)CC2C)c1 (stereo not given)
5. Cc1nnc(SCC2=C(C(=O)O)N3C(=O)C(NC(=O)Cn4nc(C(F)F)c(Cl)c4C)C3SC2)s1 (stereo not given)

1: > 150 µM (not active); 2: 3.35 µM (active); 3: 2.8 µM (active); 4: 8 µM (active); 5: < 0.06 µM (active)

====

# system.tested: Zinc finger protein mex-5 (Caenorhabditis elegans, UniProt Q9XUB2)
# Sequence (Q9XUB2 whole entry): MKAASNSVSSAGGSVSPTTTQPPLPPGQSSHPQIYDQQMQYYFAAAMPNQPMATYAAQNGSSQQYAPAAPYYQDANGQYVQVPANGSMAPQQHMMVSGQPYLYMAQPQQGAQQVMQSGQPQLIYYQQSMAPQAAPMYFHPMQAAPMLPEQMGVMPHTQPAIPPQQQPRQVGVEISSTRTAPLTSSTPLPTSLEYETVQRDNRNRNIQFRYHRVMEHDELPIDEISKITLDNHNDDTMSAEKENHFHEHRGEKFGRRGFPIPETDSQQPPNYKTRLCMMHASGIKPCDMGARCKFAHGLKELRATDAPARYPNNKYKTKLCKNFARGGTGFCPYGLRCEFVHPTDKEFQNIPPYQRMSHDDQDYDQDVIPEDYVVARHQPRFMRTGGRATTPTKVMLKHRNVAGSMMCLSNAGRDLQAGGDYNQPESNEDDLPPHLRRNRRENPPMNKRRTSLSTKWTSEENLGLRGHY
# assay.explanation: potency of MEX-5 RNA-binding blockers – biochemical, C. elegans, fluorescence polarization, dose response (AID 1960)
The source made the active and inactive calls.
Hi there, I'd appreciate the recorded EC50 for every entry that follows.

For orientation, consider the following solved cases.
COC(=O)c1cc(C(=O)OC)cc(-n2c(C)cc(C(=O)CC#N)c2C)c1    > 300 µM (not active)
CN(C)CCCN1C(=O)c2cccc3c(Br)ccc(c23)C1=O    16.7 µM (active)

GET /values?readout=EC50&item= Cc1ccc(S(=O)(=O)CCSc2nc(C)cc(C(F)(F)F)c2C#N)cc1
80.8 µM (active)

====

# assay.explanation: Luminescence Cell-Based Dose Response HTS to Identify Inhibitors of 5'UTR Stem-Loop Driven Prion Protein mRNA Translation in H4 Neuroglioblastoma Cells. [Related pubchem assays: 1827 (Project Summary), 1813 (Primary HTS)]
# Assay type: functional
Calls of active or inactive are those of the source.
measure.name: EC50

Worked examples follow.
Cc1c(Cc2ccccc2)sc(N)c1C(N)=O    > 120 µM (not active)
CCOC(=O)c1c2c(n(C)c1COC)C(=O)C(=O)c1ccc(Br)cc1-2    5.16 µM (active)

State the recorded EC50 for this entry: CC(NC(=O)Cn1ncc(Cl)c(Cl)c1=O)C12CC3CC(CC(C3)C1)C2 (stereo not drawn)
6.41 µM (active)

====

Field: EC50. Provide a value for each of the compounds that follow.
# system.tested: Corticotropin-releasing factor receptor 2/Corticotropin-releasing factor-binding protein (Homo sapiens, UniProt P24387+Q13324)
# assay.explanation: activators of CRF receptor 2 with binding protein – uHTS hits, confirmation (AID 602473)
# Format: functional
# protocol.conditions: read-out: EC50_Mean
Calls of active or inactive are those of the source.

CCOC(=O)c1c(C(F)(F)C(F)(F)C(F)(F)C(F)(F)F)n[nH]c1C    > 53 µM (inactive)
CCOC(=O)c1cn(Cc2ccccc2)c(C(=O)OC(C)(C)C)c1O    5.22 µM (active)
Cc1[nH]c2ccccc2c1C(=O)CN1C(=O)NC(C)(c2ccc(Cl)cc2Cl)C1=O (configuration not stated)    7.59 µM (active)
Cc1cc(C)nc(SCCC(=O)Nc2ccccc2C)n1    > 53 µM (inactive)
CCN(c1ccc(NS(=O)(=O)c2cc(Cl)ccc2Cl)cc1)C(C)C    > 53 µM (inactive)
CCCCN1C(=O)NC(=O)/C(=C(O)\C=C\c2c[nH]c3ccccc23)C1=O    6.02 µM (active)

Now consider the entry below.
Given CCCCCCc1cc2cc(C(=N)NNC(=O)c3ccncc3)c(=O)oc2cc1O , state its recorded EC50.
1.11 µM (active)
